# test system: T1, IL10Rα/IL2Rγ receptor (human) (UniProt Q13651)
# T1 sequence (looked up) 1: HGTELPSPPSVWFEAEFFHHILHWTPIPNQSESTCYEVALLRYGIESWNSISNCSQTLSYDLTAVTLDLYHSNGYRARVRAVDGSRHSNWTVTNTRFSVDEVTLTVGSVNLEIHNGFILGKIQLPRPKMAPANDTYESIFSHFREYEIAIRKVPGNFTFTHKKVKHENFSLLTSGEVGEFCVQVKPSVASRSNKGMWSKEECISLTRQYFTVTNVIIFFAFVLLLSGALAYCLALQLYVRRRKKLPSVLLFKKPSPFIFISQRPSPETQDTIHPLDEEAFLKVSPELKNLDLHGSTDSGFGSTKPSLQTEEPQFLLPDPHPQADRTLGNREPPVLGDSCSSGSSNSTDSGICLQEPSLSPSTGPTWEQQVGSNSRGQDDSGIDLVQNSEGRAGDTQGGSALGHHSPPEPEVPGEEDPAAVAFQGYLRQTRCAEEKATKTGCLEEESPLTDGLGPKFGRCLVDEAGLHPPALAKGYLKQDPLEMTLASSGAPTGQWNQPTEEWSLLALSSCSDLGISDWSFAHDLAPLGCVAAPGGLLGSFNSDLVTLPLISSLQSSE
# T1 sequence (looked up) 2: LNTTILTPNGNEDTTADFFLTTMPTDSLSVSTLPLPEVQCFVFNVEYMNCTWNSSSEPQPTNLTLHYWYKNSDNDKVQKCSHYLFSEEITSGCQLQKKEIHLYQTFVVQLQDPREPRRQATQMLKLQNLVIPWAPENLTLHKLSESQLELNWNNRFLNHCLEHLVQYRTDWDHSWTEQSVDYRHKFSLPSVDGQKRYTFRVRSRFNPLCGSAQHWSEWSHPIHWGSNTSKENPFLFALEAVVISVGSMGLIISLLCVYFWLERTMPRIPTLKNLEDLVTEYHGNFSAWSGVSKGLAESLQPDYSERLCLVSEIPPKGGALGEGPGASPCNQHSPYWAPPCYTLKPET
# test protocol: cell-based or functional assay
outcome measure: IL-1β secretion, LPS treated monocytes, at 0 µM (pg/mL)
Respond numerically; units are pg/mL and should not be typed.

Example entries begin here.
{"binder": "hIL10Ra_VHH14 - hIL2Rg_VHH19, linker …, tag his (bispecific antibody, not shown: small tags and cut ends) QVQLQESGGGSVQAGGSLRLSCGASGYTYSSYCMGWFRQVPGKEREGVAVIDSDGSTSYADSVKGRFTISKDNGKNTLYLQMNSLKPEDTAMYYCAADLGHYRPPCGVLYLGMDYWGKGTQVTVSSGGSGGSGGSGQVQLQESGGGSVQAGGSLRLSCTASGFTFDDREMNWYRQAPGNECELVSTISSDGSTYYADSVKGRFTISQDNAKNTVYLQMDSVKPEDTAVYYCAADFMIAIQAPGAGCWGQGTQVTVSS", "measurement": 6240}
{"binder": "hIL10Ra_VHH14 - hIL2Rg_VHH19, linker GGGS, tag Fc (bispecific antibody, not shown: a dimerising Fc or GST) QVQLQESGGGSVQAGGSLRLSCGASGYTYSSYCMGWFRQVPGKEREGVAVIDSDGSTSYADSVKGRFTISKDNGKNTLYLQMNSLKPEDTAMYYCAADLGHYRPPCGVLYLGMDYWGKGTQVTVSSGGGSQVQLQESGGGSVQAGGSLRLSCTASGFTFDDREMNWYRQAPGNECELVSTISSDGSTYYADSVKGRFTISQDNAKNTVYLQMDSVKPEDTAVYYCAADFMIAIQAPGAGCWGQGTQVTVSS", "measurement": 6240}

stdin: Answer with reported IL-1β secretion, LPS treated monocytes, at 0 µM of hIL10Ra_VHH14 - hIL2Rg_VHH19, linker GGGS, tag his (bispecific antibody, not shown: small tags and cut ends) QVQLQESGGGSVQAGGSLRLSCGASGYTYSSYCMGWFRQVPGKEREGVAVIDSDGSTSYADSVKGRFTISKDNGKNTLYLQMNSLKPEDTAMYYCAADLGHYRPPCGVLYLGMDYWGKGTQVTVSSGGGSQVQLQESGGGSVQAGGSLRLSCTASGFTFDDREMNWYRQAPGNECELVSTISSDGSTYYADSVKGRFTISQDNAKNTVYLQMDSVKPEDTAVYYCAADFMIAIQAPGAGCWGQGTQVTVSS
stdout: 6240
